# System: 817829-284-R-J1-PDC complex spheroids, viability
# assay details: Anticancer human tumor 817829-284-R-J1-PDC patient-derived colon adenocarcinoma cell line growth inhibition [GQUAD]
# conditions: second compound 3.16 µM; first compound 0.000999 µM; active compounds read low
metric: viability, T/C (%)
Respond with the bare value in %.

The examples below pair each entry with its known result.
>  <compound>
CC[C@@]1(O)C(=O)OCc2c1cc1n(c2=O)Cc2cc3c(CN(C)C)c(O)ccc3nc2-1 + CN(C)c1ccc(Nc2c3ccc(NC(=O)CCN4CCCC4)cc3nc3cc(NC(=O)CCN4CCCC4)ccc23)cc1

>  <metric>
viability, T/C

>  <measurement units>
%

>  <endpoint result>
114

$$$$
>  <compound>
Cn1ncnc1[C@H]1c2n[nH]c(=O)c3cc(F)cc(c23)N[C@@H]1c1ccc(F)cc1 + CN(C)c1ccc(Nc2c3ccc(NC(=O)CCN4CCCC4)cc3nc3cc(NC(=O)CCN4CCCC4)ccc23)cc1

>  <metric>
viability, T/C

>  <measurement units>
%

>  <endpoint result>
92.2

$$$$
>  <compound>
CC[C@@]1(O)C(=O)OCc2c1cc1n(c2=O)Cc2cc3c(CN(C)C)c(O)ccc3nc2-1 + Cc1[nH]c2ccc(F)cc2c1-c1nc2c3cccnc3c3ncccc3c2[nH]1

>  <metric>
viability, T/C

>  <measurement units>
%

>  <endpoint result>
108

$$$$
>  <compound>
CCc1c2c(nc3ccc(O)cc13)-c1cc3c(c(=O)n1C2)COC(=O)[C@]3(O)CC + Cc1cnc(CNC(=O)c2c(=O)c3ccc(N4CCCN(C)CC4)nc3n3c2sc2ccccc23)cn1

>  <metric>
viability, T/C

>  <measurement units>
%

>  <endpoint result>
20.3

$$$$
>  <compound>
Cc1[nH]c2ccccc2c1CCNCc1ccc(/C=C/C(=O)NO)cc1 + Cc1[nH]c2ccc(F)cc2c1-c1nc2c3cccnc3c3ncccc3c2[nH]1

>  <metric>
viability, T/C

>  <measurement units>
%

>  <endpoint result>
71.3

$$$$

Missing value: viability, T/C, 817829-284-R-J1-PDC complex spheroids, viability, entry Cn1ncnc1[C@H]1c2n[nH]c(=O)c3cc(F)cc(c23)N[C@@H]1c1ccc(F)cc1 + Cc1cnc(CNC(=O)c2c(=O)c3ccc(N4CCCN(C)CC4)nc3n3c2sc2ccccc23)cn1 . Fill in?
20.3

# iterate: CCc1c2c(nc3ccc(O)cc13)-c1cc3c(c(=O)n1C2)COC(=O)[C@]3(O)CC + Cc1[nH]c2ccc(F)cc2c1-c1nc2c3cccnc3c3ncccc3c2[nH]1
30.3

----------
# Test system: 817829-284-R-J1-PDC complex spheroids, viability
# assay details: Anticancer human tumor 817829-284-R-J1-PDC cell line growth inhibition [GQUAD]; active means viability on the fitted dose curve at most 10% of control; inactive means the rest;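 note: spheroids exposed to agents for 7 days before readout; percent viability relative to DMSO vehicle control taken as 100%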
# conditions: second compound 10 µM; first compound 0.0316 µM
Please answer using one outcome listed in Y = active, N = inactive

Outcome? Cn1ncnc1[C@H]1c2n[nH]c(=O)c3cc(F)cc(c23)N[C@@H]1c1ccc(F)cc1 + Cc1[nH]c2ccc(F)cc2c1-c1nc2c3cccnc3c3ncccc3c2[nH]1
N

----------
# Test system: 817829-284-R-J1-PDC complex spheroids, viability
# assay details: Anticancer human tumor 817829-284-R-J1-PDC cell line growth inhibition [GQUAD]; active = viability on the fitted dose curve at most 10% of control; inactive = the rest;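 note: spheroids exposed to agents for 7 days before readout; percent viability relative to DMSO vehicle control taken as 100%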
# conditions: second compound 0.1 µM; first compound 0.1 µM
// one of YES (active), NO (inactive), no free text

Examples from the recorded data:
>  <compound>
CC(=O)O[C@H]1C(=O)[C@@]2(C)[C@H]([C@H](OC(=O)c3ccccc3)[C@]3(O)C[C@H](OC(=O)[C@H](O)[C@@H](NC(=O)c4ccccc4)c4ccccc4)C(C)=C1C3(C)C)[C@]1(OC(C)=O)CO[C@@H]1C[C@@H]2O + CN(C)c1ccc(Nc2c3ccc(NC(=O)CCN4CCCC4)cc3nc3cc(NC(=O)CCN4CCCC4)ccc23)cc1

>  <assigned class>
YES

$$$$
>  <compound>
C=CCn1c(=O)c2cnc(Nc3ccc(N4CCN(C)CC4)cc3)nc2n1-c1cccc(C(C)(C)O)n1 + Cc1cnc(CNC(=O)c2c(=O)c3ccc(N4CCCN(C)CC4)nc3n3c2sc2ccccc23)cn1

>  <assigned class>
NO

$$$$
>  <compound>
COc1ccc([C@@H](O)c2cc(-c3ncnc4cc(N5CCOCC5)ccc34)c(F)cc2Cl)nn1 + CN(C)c1ccc(Nc2c3ccc(NC(=O)CCN4CCCC4)cc3nc3cc(NC(=O)CCN4CCCC4)ccc23)cc1

>  <assigned class>
NO

$$$$

Consider the record given below.
Give the logged outcome of this assay for the following compound: CC(=O)O[C@H]1C(=O)[C@@]2(C)[C@H]([C@H](OC(=O)c3ccccc3)[C@]3(O)C[C@H](OC(=O)[C@H](O)[C@@H](NC(=O)c4ccccc4)c4ccccc4)C(C)=C1C3(C)C)[C@]1(OC(C)=O)CO[C@@H]1C[C@@H]2O + Cc1[nH]c2ccc(F)cc2c1-c1nc2c3cccnc3c3ncccc3c2[nH]1
YES
